- SYSTEM: T1, EDIII-DV3 (Dengue virus serotype 3 (DV3), UniProt Q6YMS3 579-671)
- T1 construct: also called EDIII of DV3; EDIII-DVIII
- T1 sequence (Q6YMS3 579-671 limits assumed): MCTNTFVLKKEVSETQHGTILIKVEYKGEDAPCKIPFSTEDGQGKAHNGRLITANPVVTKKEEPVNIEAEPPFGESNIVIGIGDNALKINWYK
- ASSAY METHOD TEXT: competition ELISA; affinity relative to 4E5A
The entries below are paired with their reported REL AFFINITY.

>  <BINDER>
VH_Y106R (antibody, V domains shown, copies: 2 + 2) VH: VKLLEQSGAELVKPGASVRLSCTASGFNIKDTYMSWVKQRPEQGLEWIGRIDPENGDTKYDPKFQGKATITADTSSNTAYLHLSSLTSGDTAVYYCSRGWEGFARWGQGTLVTVSA VL: ELVMTQTPASLAVSLGQRATISCRASENVDKYGNSFMHWYQQKAGQPPKLLIYRASELQWGIPARFSGSGSRTDFTLTINPVEADDVATYFCQRSNEVPWTFGGGTKLEIK

>  <REL AFFINITY>
0.72

$$$$
>  <BINDER>
VH_A25_del (antibody, V domains shown, also called 4E5-del-25; copies: 2 + 2) VH: VKLLEQSGAELVKPGASVRLSCTSGFNIKDTYMSWVKQRPEQGLEWIGRIDPENGDTKYDPKFQGKATITADTSSNTAYLHLSSLTSGDTAVYYCSRGWEGFAYWGQGTLVTVSA VL: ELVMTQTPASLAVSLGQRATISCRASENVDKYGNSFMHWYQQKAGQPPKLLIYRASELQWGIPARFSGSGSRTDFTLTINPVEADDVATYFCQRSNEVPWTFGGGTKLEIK

>  <REL AFFINITY>
1.22

$$$$
>  <BINDER>
VH_G27A (antibody, V domains shown) VH: VKLLEQSGAELVKPGASVRLSCTASAFNIKDTYMSWVKQRPEQGLEWIGRIDPENGDTKYDPKFQGKATITADTSSNTAYLHLSSLTSGDTAVYYCSRGWEGFAYWGQGTLVTVSA VL: ELVMTQTPASLAVSLGQRATISCRASENVDKYGNSFMHWYQQKAGQPPKLLIYRASELQWGIPARFSGSGSRTDFTLTINPVEADDVATYFCQRSNEVPWTFGGGTKLEIKR

>  <REL AFFINITY>
1.17

$$$$
>  <BINDER>
VH_G27P (antibody, V domains shown, also called 4E5-G27P; copies: 2 + 2) VH: VKLLEQSGAELVKPGASVRLSCTASPFNIKDTYMSWVKQRPEQGLEWIGRIDPENGDTKYDPKFQGKATITADTSSNTAYLHLSSLTSGDTAVYYCSRGWEGFAYWGQGTLVTVSA VL: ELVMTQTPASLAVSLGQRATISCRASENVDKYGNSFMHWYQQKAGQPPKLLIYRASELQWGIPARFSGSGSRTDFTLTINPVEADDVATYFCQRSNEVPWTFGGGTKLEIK

>  <REL AFFINITY>
0.73

$$$$
>  <BINDER>
VH_S26_del (antibody, V domains shown) VH: VKLLEQSGAELVKPGASVRLSCTAGFNIKDTYMSWVKQRPEQGLEWIGRIDPENGDTKYDPKFQGKATITADTSSNTAYLHLSSLTSGDTAVYYCSRGWEGFAYWGQGTLVTVSA VL: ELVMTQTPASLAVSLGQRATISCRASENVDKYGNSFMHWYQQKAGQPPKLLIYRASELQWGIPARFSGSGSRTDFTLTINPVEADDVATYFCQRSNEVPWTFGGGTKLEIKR

>  <REL AFFINITY>
4.42

$$$$
>  <BINDER>
VH_G27_del (antibody, V domains shown) VH: VKLLEQSGAELVKPGASVRLSCTASFNIKDTYMSWVKQRPEQGLEWIGRIDPENGDTKYDPKFQGKATITADTSSNTAYLHLSSLTSGDTAVYYCSRGWEGFAYWGQGTLVTVSA VL: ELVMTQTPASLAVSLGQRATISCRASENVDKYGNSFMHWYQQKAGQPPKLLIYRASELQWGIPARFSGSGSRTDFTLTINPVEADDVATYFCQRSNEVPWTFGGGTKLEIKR

>  <REL AFFINITY>
2.67

$$$$
